Data credit: paper PMC10342118

Biological target: MAO-A (Homo sapiens)
Sequence (P21397 1-527): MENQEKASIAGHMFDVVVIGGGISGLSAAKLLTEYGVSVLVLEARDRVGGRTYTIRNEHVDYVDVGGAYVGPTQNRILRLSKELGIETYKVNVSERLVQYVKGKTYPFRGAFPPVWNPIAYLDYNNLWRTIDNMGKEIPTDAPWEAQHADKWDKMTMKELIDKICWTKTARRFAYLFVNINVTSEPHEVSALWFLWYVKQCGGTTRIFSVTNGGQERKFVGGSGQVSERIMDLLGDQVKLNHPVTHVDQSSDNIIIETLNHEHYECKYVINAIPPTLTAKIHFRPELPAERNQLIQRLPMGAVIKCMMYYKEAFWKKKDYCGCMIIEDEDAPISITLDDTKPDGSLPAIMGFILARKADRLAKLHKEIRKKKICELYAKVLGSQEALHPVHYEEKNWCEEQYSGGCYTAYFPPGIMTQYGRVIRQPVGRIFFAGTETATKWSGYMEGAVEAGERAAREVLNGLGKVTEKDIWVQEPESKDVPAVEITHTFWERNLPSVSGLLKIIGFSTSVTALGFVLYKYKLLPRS
Experiment: Isothermal titration calorimetry (ITC) of the interaction of MAO-A with the compounds
Type: binding
Settings: ITC, 36.6 °C, mean ± SD, n = 3
List of KA ∗ 10^3 values.
test readout: KA ∗ 10^3

| compound | observed result |
| --- | --- |
| CC(O)CCC1OC(=O)c2ccccc21 (stereo not shown) [Compound 2, 3-n-butyl-10-hydroxyphthalide] | 33.44 ± 0.15 ^a 10^3 L/mol |
| O=C(O)CCCC1OC(=O)c2ccccc21 (stereo not shown) [Compound 4, 3-n-butylphthalide-11-oic acid] | 14.83 ± 0.25 ^e 10^3 L/mol |
| CCCCC1OC(=O)c2ccccc21 (stereo not shown) [Compound 1, 3-n-butylphthalide] | 41.15 ± 0.36 ^d 10^3 L/mol |
| O=C1OC(CCCCO)c2ccccc21 (stereo not shown) [Compound 3, 3-n-butyl-11-hydroxyphthalide] | 4.18 ± 0.35 ^e 10^3 L/mol |

###

List of ∆S values.
biological target: MAO-A (Homo sapiens, UniProt P21397); assay: Isothermal titration calorimetry (ITC) of the interaction of MAO-A with the compounds; assay type: binding; details: ITC, 36.6 °C, mean ± SD, n = 3
Marks after values point to notes of the source that are not given here.
test readout: ∆S

| compound | study target | test readout | observed result |
| --- | --- | --- | --- |
| O=C1OC(CCCCO)c2ccccc21 (stereo not shown) [Compound 3, 3-n-butyl-11-hydroxyphthalide] | MAO-A (Homo sapiens, UniProt P21397) | ∆S | 13.92 ± 0.92 ^a J/mol ∗ K |
| O=C(O)CCCC1OC(=O)c2ccccc21 (stereo not shown) [Compound 4, 3-n-butylphthalide-11-oic acid] | MAO-A (Homo sapiens, UniProt P21397) | ∆S | 48.71 ± 1.05 ^a J/mol ∗ K |
| CC(O)CCC1OC(=O)c2ccccc21 (stereo not shown) [Compound 2, 3-n-butyl-10-hydroxyphthalide] | MAO-A (Homo sapiens, UniProt P21397) | ∆S | 61.55 ± 1.84 ^d J/mol ∗ K |
| CCCCC1OC(=O)c2ccccc21 (stereo not shown) [Compound 1, 3-n-butylphthalide] | MAO-A (Homo sapiens, UniProt P21397) | ∆S | 73.85 ± 1.05 ^d J/mol ∗ K |
